target-entity: human fibroblast activation protein (FAP) on WI-38 fibroblasts (human) (UniProt Q12884)
assay-procedure: competitive FACS, WI-38 cells, Cy5-labeled peptide as competitor
Numbered stars: 1 amine (or outer) side, 2 acyl side, 3 side chain; on linkers, the order of the positions; unused ones are H or OH. Bridge positions count the residues as written; N and C are the ends. Square brackets hold non-standard residues; d marks the D form. * marks the point of attachment. tMeBn(DOTA-PP) = 1,3,5-trimethylbenzylidene, two thioethers to Cys, third CH2 bound to one N of piperazine whose other N bears DOTA, O=C(O)CN1CCN(CC(=O)O)CCN(CC(=O)N2CCN(Cc3cc(C[*:1])cc(C[*:2])c3)CC2)CCN(CC(=O)O)CC1; mXylylene = c1cc(C[*:1])cc(C[*:2])c1; Hexanoyl = CCCCCC(=O)*; Nlys = NCCCCNCC(=O)O

- binder: "Hexanoyl-C[Nlys]PTQFC-NH2 (linker 1-7 via mXylylene; SMILES CCCCCC(=O)N[C@H]1CSCc2cccc(c2)CSC[C@@H](C(N)=O)NC(=O)[C@H](Cc2ccccc2)NC(=O)[C@H](CCC(N)=O)NC(=O)[C@H]([C@@H](C)O)NC(=O)[C@@H]2CCCN2C(=O)CN(CCCCN)C1=O) [Hex-[Cys(3MeBn)-Nlys-Pro-Thr-Gln-Phe-Cys]-NH2]"
  pIC50 Category (FACS): "< 6 pIC50"
- binder: "Hexanoyl-CTQPFPCD-NH2 (linker 1-7 via tMeBn(DOTA-PP); SMILES CCCCCC(=O)N[C@H]1CSCc2cc(cc(CN3CCN(C(=O)CN4CCN(CC(=O)O)CCN(CC(=O)O)CCN(CC(=O)O)CC4)CC3)c2)CSC[C@@H](C(=O)N[C@@H](CC(=O)O)C(N)=O)NC(=O)[C@@H]2CCCN2C(=O)[C@H](Cc2ccccc2)NC(=O)[C@@H]2CCCN2C(=O)[C@H](CCC(N)=O)NC(=O)[C@H]([C@@H](C)O)NC1=O) [Hex-[Cys(tMeBn(DOTA-PP))-Thr-Gln-Pro-Phe-Pro-Cys]-Asp-NH2]"
  pIC50 Category (FACS): "< 6 pIC50"
- binder: "Hexanoyl-CFQTPPCD-NH2 (linker 1-7 via tMeBn(DOTA-PP); SMILES CCCCCC(=O)N[C@H]1CSCc2cc(cc(CN3CCN(C(=O)CN4CCN(CC(=O)O)CCN(CC(=O)O)CCN(CC(=O)O)CC4)CC3)c2)CSC[C@@H](C(=O)N[C@@H](CC(=O)O)C(N)=O)NC(=O)[C@@H]2CCCN2C(=O)[C@@H]2CCCN2C(=O)[C@H]([C@@H](C)O)NC(=O)[C@H](CCC(N)=O)NC(=O)[C@H](Cc2ccccc2)NC1=O) [Hex-[Cys(tMeBn(DOTA-PP))-Phe-Gln-Thr-Pro-Pro-Cys]-Asp-NH2]"
  pIC50 Category (FACS): "< 6 pIC50"

// provenance: patent US20230212549A1
